molecular target: T1, GST-fused GRP78-SBD (GRP78 409-651) (UniProt P11021 409-651); test: fluorescence polarisation; competition: complex of 10 nM FITC-labeled 7-mer peptide and 0.75 mg/ml GST-fused GRP78 SBD against 100 µM to 0.1 nM unlabeled peptide in Tris-GSH buffer; details: both partners purified
T1 construct: Used on beads in pull-downs and in solution (GST kept) in fluorescence polarisation; also called GST-GRP78(SBD); source: bacterially purified GST fusion (pGEX4T.1)
T1 sequence (P11021 409-651): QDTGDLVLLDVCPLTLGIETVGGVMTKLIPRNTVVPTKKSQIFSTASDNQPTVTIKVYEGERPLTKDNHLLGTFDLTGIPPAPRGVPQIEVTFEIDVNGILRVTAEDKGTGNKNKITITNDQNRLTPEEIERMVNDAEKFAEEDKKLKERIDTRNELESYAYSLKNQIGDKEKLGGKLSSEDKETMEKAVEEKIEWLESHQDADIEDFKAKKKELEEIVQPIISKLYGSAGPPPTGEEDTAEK

- Binder: "RAAAIGK [triple mutant Bag-1 7-mer peptide (214RAAAIGK220)]"
  Lt gt eq: ">"
  IC50, nM: 100000
- Binder: "RVMLIGK (core peptide of Bag-1, residues 214-220 on Bag-1L numbering; also called seven amino acid core peptide) [wild-type Bag-1 7-mer peptide (214RVMLIGK220), unlabeled]"
  Lt gt eq: "="
  IC50, nM: 2600
